Biological target: T1, human VEGF (human, UniProt P15692-4 27-191)
T1 construct: Bought recombinant protein; also called hVEGF; human VEGF-A
T1 sequence (P15692 other isoform, or with tags, fused parts or gaps limits assumed): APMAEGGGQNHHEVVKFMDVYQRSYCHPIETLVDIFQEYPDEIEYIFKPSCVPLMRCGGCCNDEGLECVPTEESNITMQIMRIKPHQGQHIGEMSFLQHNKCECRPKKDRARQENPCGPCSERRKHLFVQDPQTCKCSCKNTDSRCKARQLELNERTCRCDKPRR
Test: SPR (BIAcore X100), VEGF on CM5 chip, IgG injected, 1:1 Langmuir
Assign Kd to each entry below.
Write the answer as a number in pM, unit excluded.

Any idea what Kd was measured for HF2-7 (antibody, V domains shown) VH: EVQLVESGGGLVQPGGSLRLSCAASQFWIRSHGMQWVRQAPGKGLEYVAGISSDGSWFRVAAAVEGRFTISRDDSKNTAYLQMNSLRAEDTAVYYCARDFSTGYGADSIDAWGQGTLVTVSS VL: DIQMTQSPSSLSASVGDRVTITCSGGSMEPLGYGWYQQKPGKAPKTLIYWDDKRPSGVPSRFSGSRSGTDFTLTISSLQPEDFATYYCGAWEYSGGVGIFGQGTKVEIK ?
16

Another binder: HF2-11 (antibody, V domains shown, also called HF-11; clone HF2-11) VH: EVQLVESGGGLVQPGGSLRLSCAASGFLIRSHGMQWVRQAPGKGLEYVAGISSDGSWVKVAAAVEGRFTISRDDSKNTAYLQMNSLRAEDTAVYYCARDFSTGYGADSIDAWGQGTLVTVSS VL: DIQMTQSPSSLSASVGDRVTITCSGGSSEPLGYGWYQQKPGKAPKTLIYWDDKRPSGVPSRFSGSRSGTDFTLTISSLQPEDFATYYCGAWEYSGGVGIFGQGTKVEIK
4.7
